System: Caupolican (Caup) homeodomain DNA-binding domain
Sequence: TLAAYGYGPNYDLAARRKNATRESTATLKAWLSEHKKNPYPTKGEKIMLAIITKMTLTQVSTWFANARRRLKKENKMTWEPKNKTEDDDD
Test: PBM E-score (8-mer, recovered from the published 9-mer minima) (E-score (dimensionless, -0.5 to 0.5)); Drosophila protein; higher = stronger relative binding preference, active = 0.31 or more
Shown is part of a subset that was picked to be rich in hits. The true hit rate is not given.
Labels: 1 (active), 0 (inactive)

[[record]]
residues = "AGTAACAG"
target = "Caupolican (Caup) homeodomain DNA-binding domain"
group_label = 0

[[record]]
residues = "ATGTAAAT"
target = "Caupolican (Caup) homeodomain DNA-binding domain"
group_label = 1

[[record]]
residues = "AGCATGGA"
target = "Caupolican (Caup) homeodomain DNA-binding domain"
group_label = 0

[[record]]
residues = "ACAACCAG"
target = "Caupolican (Caup) homeodomain DNA-binding domain"
group_label = 0

[[record]]
residues = "AATAACAG"
target = "Caupolican (Caup) homeodomain DNA-binding domain"
group_label = 0

[[record]]
residues = "CATGTATC"
target = "Caupolican (Caup) homeodomain DNA-binding domain"
group_label = 1

[[record]]
residues = "TCACACAA"
target = "Caupolican (Caup) homeodomain DNA-binding domain"
group_label = 0

[[record]]
residues = "AACACTAC"
target = "Caupolican (Caup) homeodomain DNA-binding domain"
group_label = 0

[[record]]
residues = "ACAACAGT"
target = "Caupolican (Caup) homeodomain DNA-binding domain"
group_label = 0

[[record]]
residues = "AGACACAT"
target = "Caupolican (Caup) homeodomain DNA-binding domain"
group_label = 0

[[record]]
residues = "CGACGATC"
target = "Caupolican (Caup) homeodomain DNA-binding domain"
group_label = 0

[[record]]
residues = "CTAGGACA"
target = "Caupolican (Caup) homeodomain DNA-binding domain"
group_label = 0

[[record]]
residues = "ACTACACA"
target = "Caupolican (Caup) homeodomain DNA-binding domain"
group_label = 1

[[record]]
residues = "GCAACAAC"
target = "Caupolican (Caup) homeodomain DNA-binding domain"
group_label = 0

[[record]]
residues = "GTTCGCGA"
target = "Caupolican (Caup) homeodomain DNA-binding domain"
group_label = 0

[[record]]
residues = "TGACAAAA"
target = "Caupolican (Caup) homeodomain DNA-binding domain"
group_label = 0

[[record]]
residues = "ACAAGCAC"
target = "Caupolican (Caup) homeodomain DNA-binding domain"
group_label = 0

[[record]]
residues = "CCCCTGAG"
target = "Caupolican (Caup) homeodomain DNA-binding domain"
group_label = 0

[[record]]
residues = "ACAACAAC"
target = "Caupolican (Caup) homeodomain DNA-binding domain"
group_label = 1

[[record]]
residues = "AAGTAAAG"
target = "Caupolican (Caup) homeodomain DNA-binding domain"
group_label = 0

[[record]]
residues = "AAACACAT"
target = "Caupolican (Caup) homeodomain DNA-binding domain"
group_label = 0

[[record]]
residues = "CTCAGCGA"
target = "Caupolican (Caup) homeodomain DNA-binding domain"
group_label = 0

[[record]]
residues = "TTGTAAAA"
target = "Caupolican (Caup) homeodomain DNA-binding domain"
group_label = 0

[[record]]
residues = "ATGTAAAC"
target = "Caupolican (Caup) homeodomain DNA-binding domain"
group_label = 1

[[record]]
residues = "ACCCCGAA"
target = "Caupolican (Caup) homeodomain DNA-binding domain"
group_label = 0

[[record]]
residues = "GCACACAC"
target = "Caupolican (Caup) homeodomain DNA-binding domain"
group_label = 0

[[record]]
residues = "CATTACAC"
target = "Caupolican (Caup) homeodomain DNA-binding domain"
group_label = 1

[[record]]
residues = "GGACATAC"
target = "Caupolican (Caup) homeodomain DNA-binding domain"
group_label = 0

[[record]]
residues = "CATTTCAA"
target = "Caupolican (Caup) homeodomain DNA-binding domain"
group_label = 0

[[record]]
residues = "GTTATTTA"
target = "Caupolican (Caup) homeodomain DNA-binding domain"
group_label = 0

[[record]]
residues = "ACAACAAG"
target = "Caupolican (Caup) homeodomain DNA-binding domain"
group_label = 1

[[record]]
residues = "CAACATAC"
target = "Caupolican (Caup) homeodomain DNA-binding domain"
group_label = 0

[[record]]
residues = "AAAACAAT"
target = "Caupolican (Caup) homeodomain DNA-binding domain"
group_label = 0

[[record]]
residues = "ACAAGCAA"
target = "Caupolican (Caup) homeodomain DNA-binding domain"
group_label = 1

[[record]]
residues = "CCAACAAC"
target = "Caupolican (Caup) homeodomain DNA-binding domain"
group_label = 0

[[record]]
residues = "AAACATCG"
target = "Caupolican (Caup) homeodomain DNA-binding domain"
group_label = 0

[[record]]
residues = "AATGTATC"
target = "Caupolican (Caup) homeodomain DNA-binding domain"
group_label = 1

[[record]]
residues = "CTTTACAC"
target = "Caupolican (Caup) homeodomain DNA-binding domain"
group_label = 0

[[record]]
residues = "GATTACAC"
target = "Caupolican (Caup) homeodomain DNA-binding domain"
group_label = 1

[[record]]
residues = "ACGTAGCT"
target = "Caupolican (Caup) homeodomain DNA-binding domain"
group_label = 0

[[record]]
residues = "AGGCTTTC"
target = "Caupolican (Caup) homeodomain DNA-binding domain"
group_label = 0

[[record]]
residues = "AACTTGTG"
target = "Caupolican (Caup) homeodomain DNA-binding domain"
group_label = 0

[[record]]
residues = "GCACACAA"
target = "Caupolican (Caup) homeodomain DNA-binding domain"
group_label = 0

[[record]]
residues = "CGTTTTCC"
target = "Caupolican (Caup) homeodomain DNA-binding domain"
group_label = 0

[[record]]
residues = "CCTACACG"
target = "Caupolican (Caup) homeodomain DNA-binding domain"
group_label = 0

[[record]]
residues = "AGGTAAAT"
target = "Caupolican (Caup) homeodomain DNA-binding domain"
group_label = 0

[[record]]
residues = "GGATCTCA"
target = "Caupolican (Caup) homeodomain DNA-binding domain"
group_label = 0

[[record]]
residues = "ACTATCAG"
target = "Caupolican (Caup) homeodomain DNA-binding domain"
group_label = 0

[[record]]
residues = "TGACAACA"
target = "Caupolican (Caup) homeodomain DNA-binding domain"
group_label = 1

[[record]]
residues = "GCTGCGGA"
target = "Caupolican (Caup) homeodomain DNA-binding domain"
group_label = 0

[[record]]
residues = "GTGTAAAC"
target = "Caupolican (Caup) homeodomain DNA-binding domain"
group_label = 0

[[record]]
residues = "TCAAGCAA"
target = "Caupolican (Caup) homeodomain DNA-binding domain"
group_label = 0

[[record]]
residues = "CTGTAAAG"
target = "Caupolican (Caup) homeodomain DNA-binding domain"
group_label = 0

[[record]]
residues = "AGTAACAT"
target = "Caupolican (Caup) homeodomain DNA-binding domain"
group_label = 1

[[record]]
residues = "AATGTATA"
target = "Caupolican (Caup) homeodomain DNA-binding domain"
group_label = 0

[[record]]
residues = "CGAATTGC"
target = "Caupolican (Caup) homeodomain DNA-binding domain"
group_label = 0

[[record]]
residues = "TGACACAA"
target = "Caupolican (Caup) homeodomain DNA-binding domain"
group_label = 0

[[record]]
residues = "CCCTGTCA"
target = "Caupolican (Caup) homeodomain DNA-binding domain"
group_label = 0

[[record]]
residues = "ACTAGCCA"
target = "Caupolican (Caup) homeodomain DNA-binding domain"
group_label = 0

[[record]]
residues = "CGCAGAAC"
target = "Caupolican (Caup) homeodomain DNA-binding domain"
group_label = 0

[[record]]
residues = "ACTGAGTC"
target = "Caupolican (Caup) homeodomain DNA-binding domain"
group_label = 0

[[record]]
residues = "ATGTAAAG"
target = "Caupolican (Caup) homeodomain DNA-binding domain"
group_label = 1

[[record]]
residues = "GCAAGCAA"
target = "Caupolican (Caup) homeodomain DNA-binding domain"
group_label = 0

[[record]]
residues = "ACGCAATG"
target = "Caupolican (Caup) homeodomain DNA-binding domain"
group_label = 0

[[record]]
residues = "CTACACAA"
target = "Caupolican (Caup) homeodomain DNA-binding domain"
group_label = 0

[[record]]
residues = "AAACATTG"
target = "Caupolican (Caup) homeodomain DNA-binding domain"
group_label = 0

[[record]]
residues = "TCAACAAA"
target = "Caupolican (Caup) homeodomain DNA-binding domain"
group_label = 0

[[record]]
residues = "AATGTATG"
target = "Caupolican (Caup) homeodomain DNA-binding domain"
group_label = 0

[[record]]
residues = "CGGTCTGA"
target = "Caupolican (Caup) homeodomain DNA-binding domain"
group_label = 0

[[record]]
residues = "CCTCTGCC"
target = "Caupolican (Caup) homeodomain DNA-binding domain"
group_label = 0

[[record]]
residues = "ACTACACC"
target = "Caupolican (Caup) homeodomain DNA-binding domain"
group_label = 0

[[record]]
residues = "ACAACAAT"
target = "Caupolican (Caup) homeodomain DNA-binding domain"
group_label = 1

[[record]]
residues = "GACTTGTA"
target = "Caupolican (Caup) homeodomain DNA-binding domain"
group_label = 1

[[record]]
residues = "TTACACAA"
target = "Caupolican (Caup) homeodomain DNA-binding domain"
group_label = 1

[[record]]
residues = "ATGTAAAA"
target = "Caupolican (Caup) homeodomain DNA-binding domain"
group_label = 1

[[record]]
residues = "CATTACAG"
target = "Caupolican (Caup) homeodomain DNA-binding domain"
group_label = 0

[[record]]
residues = "ACTACACG"
target = "Caupolican (Caup) homeodomain DNA-binding domain"
group_label = 1

[[record]]
residues = "ACCAACCC"
target = "Caupolican (Caup) homeodomain DNA-binding domain"
group_label = 0

[[record]]
residues = "CGACAACG"
target = "Caupolican (Caup) homeodomain DNA-binding domain"
group_label = 0

[[record]]
residues = "TGACAGCA"
target = "Caupolican (Caup) homeodomain DNA-binding domain"
group_label = 0

[[record]]
residues = "AACTTGTA"
target = "Caupolican (Caup) homeodomain DNA-binding domain"
group_label = 1

[[record]]
residues = "GATTCGGC"
target = "Caupolican (Caup) homeodomain DNA-binding domain"
group_label = 0

[[record]]
residues = "AGCATGGG"
target = "Caupolican (Caup) homeodomain DNA-binding domain"
group_label = 0

[[record]]
residues = "GCTACACA"
target = "Caupolican (Caup) homeodomain DNA-binding domain"
group_label = 0

[[record]]
residues = "ATTCGGAA"
target = "Caupolican (Caup) homeodomain DNA-binding domain"
group_label = 0

[[record]]
residues = "GTACACAA"
target = "Caupolican (Caup) homeodomain DNA-binding domain"
group_label = 1

[[record]]
residues = "ACAAGCAG"
target = "Caupolican (Caup) homeodomain DNA-binding domain"
group_label = 0

[[record]]
residues = "ATACACAT"
target = "Caupolican (Caup) homeodomain DNA-binding domain"
group_label = 1

[[record]]
residues = "GCAACAAA"
target = "Caupolican (Caup) homeodomain DNA-binding domain"
group_label = 0

[[record]]
residues = "ATTCAGTC"
target = "Caupolican (Caup) homeodomain DNA-binding domain"
group_label = 0

[[record]]
residues = "GCCTATCA"
target = "Caupolican (Caup) homeodomain DNA-binding domain"
group_label = 0

